- assay.target: T1, monkey Trop2 protein (Sino Biological, #90893-C08H) (monkey, UniProt A0A2K5UE71 27-274)
- T1 construct: bought protein; also called monkey Trop2 protein antigen (His tag)
- T1 sequence: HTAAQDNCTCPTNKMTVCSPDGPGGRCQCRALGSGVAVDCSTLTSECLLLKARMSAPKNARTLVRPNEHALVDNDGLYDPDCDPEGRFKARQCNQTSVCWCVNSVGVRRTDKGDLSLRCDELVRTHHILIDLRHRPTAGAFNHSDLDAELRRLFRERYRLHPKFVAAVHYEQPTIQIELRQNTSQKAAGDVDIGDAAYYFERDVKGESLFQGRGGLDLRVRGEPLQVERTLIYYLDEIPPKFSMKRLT
- protocol.description: BLI, Octet RED96, AHC sensor
Assignment: determine reported Kd for the given binders.
Include the unit right after the number.

| binder | reported.property | measured.result |
| --- | --- | --- |
| PR001151 (antibody, human IgG1, kappa, V domains shown, fully human IgG1/kappa; also called antibody No. (14)) VH: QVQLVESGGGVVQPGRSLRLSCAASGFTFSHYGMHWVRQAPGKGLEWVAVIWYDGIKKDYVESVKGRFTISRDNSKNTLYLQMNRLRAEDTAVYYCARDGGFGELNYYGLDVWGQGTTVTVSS VL: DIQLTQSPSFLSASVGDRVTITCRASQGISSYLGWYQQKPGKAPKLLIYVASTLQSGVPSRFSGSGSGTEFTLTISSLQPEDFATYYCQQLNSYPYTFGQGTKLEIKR | Kd | 2.38 nM |
| PR001168 (antibody, human IgG1, kappa, V domains shown, fully human IgG1/kappa; also called antibody No. (28)) VH: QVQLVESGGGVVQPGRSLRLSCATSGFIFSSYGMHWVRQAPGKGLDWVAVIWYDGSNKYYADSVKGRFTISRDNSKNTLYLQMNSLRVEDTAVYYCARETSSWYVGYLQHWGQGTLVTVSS VL: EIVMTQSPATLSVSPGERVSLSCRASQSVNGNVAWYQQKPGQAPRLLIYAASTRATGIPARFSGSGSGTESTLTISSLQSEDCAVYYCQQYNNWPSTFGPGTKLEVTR | Kd | 2.45 nM |

Per the record, PR001165 (antibody, human IgG1, kappa, V domains shown, fully human IgG1/kappa; also called antibody No. (26)) VH: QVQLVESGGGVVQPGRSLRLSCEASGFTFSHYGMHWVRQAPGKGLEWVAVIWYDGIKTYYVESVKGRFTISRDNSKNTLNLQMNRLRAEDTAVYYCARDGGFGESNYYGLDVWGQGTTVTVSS VL: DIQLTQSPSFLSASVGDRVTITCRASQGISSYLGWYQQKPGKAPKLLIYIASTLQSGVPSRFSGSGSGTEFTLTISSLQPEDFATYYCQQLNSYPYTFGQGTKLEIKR has Kd of 0.26 nM

Value source: patent US20240067748A1
